Listed here are molecules together with their documented pKd.
assay_summary: Binding affinity to human partial length TRKC expressed in mammalian expression system by kinomescan method
pKd: −log10 of the molar value.

molecule	pKd
O=C1CCC(N2C(=O)c3cccc(NCCOCCC(=O)N4CCN(c5cccc(-c6cnc7ccc(N8CCC[C@@H]8c8cccc(F)c8)nn67)n5)CC4)c3C2=O)C(=O)N1 (stereo not given in full)	8.38
CN1C(=O)CCC(N2C(=O)c3cccc(NCCOCCC(=O)N4CCN(c5cccc(-c6cnc7ccc(N8CCC[C@@H]8c8cccc(F)c8)nn67)n5)CC4)c3C2=O)C1=O (stereo not given in full)	8.32
OC1CCN(c2cc(-c3cccc(-c4cnc5ccc(N6CCC[C@@H]6c6cccc(F)c6)nn45)n3)ccn2)CC1	8.27
O=C1CCC(N2C(=O)c3cccc(NCCCCCC(=O)N4CCN(c5cccc(-c6cnc7ccc(N8CCC[C@@H]8c8cccc(F)c8)nn67)n5)CC4)c3C2=O)C(=O)N1 (stereo not given in full)	7.74
CN1C(=O)CCC(N2C(=O)c3cccc(NCCCCCC(=O)N4CCN(c5cccc(-c6cnc7ccc(N8CCC[C@@H]8c8cccc(F)c8)nn67)n5)CC4)c3C2=O)C1=O (stereo not given in full)	7.62
